# system tested: GST-RORγ (Homo sapiens, UniProt P51449)
# Construct: 1 μg of GST-RORγ-LBD, 5 nM of [3H]T1317 as radioligand
# Sequence (P51449 269-508 limits assumed): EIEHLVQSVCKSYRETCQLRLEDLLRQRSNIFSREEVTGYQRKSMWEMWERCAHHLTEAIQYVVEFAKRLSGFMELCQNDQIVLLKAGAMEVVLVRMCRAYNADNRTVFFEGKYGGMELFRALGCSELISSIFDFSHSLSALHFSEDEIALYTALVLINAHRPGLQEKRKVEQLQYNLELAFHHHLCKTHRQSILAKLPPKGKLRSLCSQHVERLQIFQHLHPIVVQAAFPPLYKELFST
# assay remarks: RORγ scintillation proximity (SPA) radioligand binding assay, displacement of [3H]-T0901317
# protocol conditions: 10 μM compound; read-out: RORγ SPA % bound = % radiolabel bound
measured parameter: remaining activity at 10 µM
Dear colleague, please send the value followed by its unit.

Please review the entries below; each comes with its answer.
Reported GST-RORγ (Homo sapiens, UniProt P51449) remaining activity at 10 µM for item CC1CN(Cc2ccc(-c3ccc(C(O)(C(F)(F)F)C(F)(F)F)cc3)cc2)CCN1Cc1ccncc1 (stereo not shown) was 20%

Reported GST-RORγ (Homo sapiens, UniProt P51449) remaining activity at 10 µM for item OC(c1ccc(-c2ccc(CN3CCC(Nc4ccncc4)CC3)cc2)cc1)(C(F)(F)F)C(F)(F)F was 20%

Reported GST-RORγ (Homo sapiens, UniProt P51449) remaining activity at 10 µM for item Cc1cc(-c2ccc(CN3CCN(Cc4ccncc4)CC3)cc2)ccc1C(O)(C(F)(F)F)C(F)(F)F was 100%

Continuing:
Reported GST-RORγ (Homo sapiens, UniProt P51449) remaining activity at 10 µM for item CC1CN(Cc2ccncc2)CCN1Cc1ccc(-c2ccc(C(O)(C(F)(F)F)C(F)(F)F)cc2)cc1 (stereo not shown) was 20%
